Target: Kv1.5 channels from humans (Homo sapiens, UniProt P22460)
Sequence (P22460 whole entry): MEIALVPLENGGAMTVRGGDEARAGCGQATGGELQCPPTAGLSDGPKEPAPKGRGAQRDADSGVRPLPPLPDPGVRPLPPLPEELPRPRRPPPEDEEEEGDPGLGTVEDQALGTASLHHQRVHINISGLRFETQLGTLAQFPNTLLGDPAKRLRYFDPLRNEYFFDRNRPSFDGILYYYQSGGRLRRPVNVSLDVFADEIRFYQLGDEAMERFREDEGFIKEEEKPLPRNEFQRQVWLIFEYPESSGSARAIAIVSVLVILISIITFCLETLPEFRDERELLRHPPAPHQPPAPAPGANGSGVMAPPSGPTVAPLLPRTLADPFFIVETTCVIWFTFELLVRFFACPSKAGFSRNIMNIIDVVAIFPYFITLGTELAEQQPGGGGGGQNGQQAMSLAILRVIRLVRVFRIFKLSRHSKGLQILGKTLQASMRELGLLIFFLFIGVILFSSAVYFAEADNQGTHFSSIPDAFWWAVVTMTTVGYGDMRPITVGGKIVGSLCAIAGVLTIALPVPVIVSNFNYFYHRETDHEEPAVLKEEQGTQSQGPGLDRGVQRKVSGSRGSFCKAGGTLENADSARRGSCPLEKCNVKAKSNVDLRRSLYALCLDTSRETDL
Test: Kv1.5 currents in Xenopus oocytes, 2-microelectrode voltage clamp
Details: human Kv1.5 expressed in Xenopus laevis oocytes; voltage jumps to 0 mV and 40 mV, 500 ms; room temperature; inhibition of Kv1.5 control current, Hill equation
pIC50 overview
Hey, just a heads up that pIC50 is the negative log base 10 of the concentration in molar.

Data request: Tell me the measured pIC50 of COc1ccc(CC(=O)NCc2ccccc2-c2cccc(C(=O)NCc3ccc(F)cc3F)n2)cc1 [Example 21] , please.
Data returned: 5.24

* * *

Target: Kv1.5 channels from humans (Homo sapiens)
Experiment: Kv1.5 currents in Xenopus oocytes, 2-microelectrode voltage clamp
Conditions: human Kv1.5 expressed in Xenopus laevis oocytes; voltage jumps to 0 mV and 40 mV, 500 ms; room temperature; inhibition of Kv1.5 control current, Hill equation
ASSAY_READOUT: IC50 (µM)
Please state the figure in µM; there is no need to write the unit.

Completed entries (count: 4):
1) COc1ccc(CC(=O)NCc2ccccc2-c2cncc(C(=O)NCc3ccc(F)cc3F)c2)cc1 7.4
2) Cc1ccc(C(=O)NCCC(C)C)cc1-c1ccccc1CNC(=O)OC(C)(C)C 6.1
3) COc1ccc(CC(=O)NCc2ccccc2-c2cccc(C(=O)NCc3ccc(F)cc3F)c2)cc1 6
4) COc1ccc(CC(=O)NCc2ccccc2-c2cccc(C(=O)NCCC(C)C)c2)cc1 4.2

Data request: Given "COc1ccc(CC(=O)NCc2ccccc2-c2cc(C(=O)NCCC(C)C)ccc2C)cc1" , state its recorded IC50.
Data returned: 4

* * *

Target: Kv1.5 channels from humans (Homo sapiens)
Assay: Kv1.5 currents in Xenopus oocytes, 2-microelectrode voltage clamp
Details: human Kv1.5 expressed in Xenopus laevis oocytes; voltage jumps to 0 mV and 40 mV, 500 ms; room temperature; inhibition of Kv1.5 control current, Hill equation
The label is criterion met for IC50 below 4 µM and criterion not met for IC50 equal to or exceeding 4 µM.

1) COc1ccc(CCC(=O)NCc2ccccc2-c2cc(C(=O)NCCC(C)C)ccc2C)cc1 criterion met
2) C[C@H](OC(=O)NCc1ccccc1-c1cccc(C(=O)NCCc2ccccn2)n1)c1ccccc1 criterion met
3) CC(C)CCNC(=O)c1cccc(-c2ccccc2CNC(=O)OC(C)(C)C)n1 criterion not met
4) COc1ccc(NC(=O)c2cccc(-c3ccccc3CNC(=O)OC(C)(C)C)n2)cc1 criterion met
5) COc1ccc(NC(=O)c2cccc(-c3ccccc3CNC(=O)O[C@@H](C)c3ccccc3)n2)cc1 criterion met

Data request: Hello, I'm reviewing records and need to know if IC50 of "CC(C)(C)OC(=O)NCc1ccccc1-c1cccc(C(=O)NCCc2ccccn2)n1" is below 4 µM. Could you check?
Data returned: criterion not met

Data request: Check "Cc1ccc(C(=O)NCCC(C)C)cc1-c1ccccc1CNC(=O)OCc1ccccc1" too.
Data returned: criterion not met

Data request: Lookup "CC(C)C[C@H](NC(=O)c1cccc(-c2ccccc2CNC(=O)O[C@@H](C)c2ccccc2)n1)C(N)=O"
Data returned: criterion not met

* * *

Target: Kv1.5 channels from humans (Homo sapiens, UniProt P22460)
Experiment: Kv1.5 currents in Xenopus oocytes, 2-microelectrode voltage clamp
Conditions: human Kv1.5 expressed in Xenopus laevis oocytes; voltage jumps to 0 mV and 40 mV, 500 ms; room temperature; inhibition of Kv1.5 control current, Hill equation
ASSAY_READOUT: IC50

1) CC(C)(C)OC(=O)NCc1ccccc1-c1ccc(Cl)c(C(=O)NCc2ccc(F)cc2F)c1 < 100 µM

Data request: Which IC50 value is on record for "COc1ccc(CC(=O)NCc2ccccc2-c2cccc(C(=O)NCCc3ccccn3)n2)cc1" ?
Data returned: < 100 µM

Data request: Now give it for "CC(C)CCNC(=O)c1cncc(-c2ccccc2CNC(=O)OC(C)(C)C)c1" too.
Data returned: < 100 µM

Data request: Try this compound next: "CCOc1ccc(C(=O)NCc2ccccc2-c2cccc(C(=O)Nc3ccc(OC)cc3)n2)cc1"
Data returned: < 100 µM

Data request: What do you get for "O=C(NCc1ccccc1-c1cccc(C(=O)NCc2ccc(F)cc2F)n1)OCc1ccccc1" ?
Data returned: < 100 µM

Data request: Try "CC(C)(C)OC(=O)NCc1ccccc1-c1cccc(C(=O)NCc2ccc(F)cc2F)n1" next.
Data returned: < 100 µM

Data request: Also "CC(C)(C)OC(=O)NCc1ccccc1-c1cccc(C(=O)NCc2ccc(F)cc2F)c1" ?
Data returned: < 100 µM

Data request: Same thing, different compound: "O=C(NCc1ccccc1-c1cccc(C(=O)NCc2ccc(F)cc2F)c1)OCc1ccccc1"
Data returned: < 100 µM
